pIC50 values by entry
- ASSAY_REMARKS: Inhibition of TPA-induced EBV-early antigen activation in human Raji cells after 48 hrs by indirect immunofluorescence method
- Format: cell-based, human gammaherpesvirus 4
Conceptually, pIC50 converts a concentration in mol/L into minus its log10.

{"columns": ["MOLECULE", "VALUE_REPORTED"],
 "data": [
  ["COc1c(CC=C(C)C)c2c(c(O)c1C(C)=O)CC(O)C(C)(C)O2 (racemic)", 5.05],
  ["COc1c(CCC(C)C)c2c(c(O)c1C(C)=O)CC(O)C(C)(C)O2 (stereo not given)", 5.09],
  ["COc1c2c(c(CCC(C)C)c(O)c1C(C)=O)OC(C)(C)C(O)C2 (racemic)", 5.03],
  ["COc1c(CC=C(C)C)c2c(c(O)c1C(C)=O)CC(C(C)(C)O)O2 (racemic)", 5.10]
]}

Next item in the queue.
Reported pIC50 ( COc1c(CC=C(C)C)c2c(c(OC(C)=O)c1C(C)=O)CC(C(C)(C)O)O2 (stereo not given) ) = 4.82
